Tested on: SKOV3
Test: Primary qHTS to identify gynecologic anti-cancer compounds using libraries of approved drugs and bioactive compounds (AID 1345084); also: % is scaled to controls: 0 for no effect and ±100 for the full control effect; nearly all actives have a fitted effect of over 55% in size
Conditions: Gynecologic cancer cell panel viability, ATPlite luminescence, 48 h; series mostly up to 57.5 µM
Results filed as inconclusive are left out. Activity calls are given as the source filed them. Calls follow the shape of the dose curve; as a rule, active = well fitted cell-killing curve with a large enough effect; inconclusive = small, poorly fitted or top-dose-only effect, or effect the other way; inactive = flat fitted curve, though single readings scatter.
READOUT_KIND: activity change, negative = cytotoxicity

Some molecules with known activity change, negative = cytotoxicity results, for comparison:
MOLECULE	TEST_SYSTEM	activity change, negative = cytotoxicity
C[C@@]12CC3(S(=O)(=O)O)OC(O1)[C@]1(COC(=O)c4ccccc4)[C@H]3C[C@]21O[C@@H]1O[C@H](CO)[C@@H](O)[C@H](O)[C@H]1O	SKOV3	inactive
C[C@@H]1O[C@@H](O[C@H]2[C@H](OC(=O)[C@]34CCC(C)(C)C[C@H]3C3=CCC5[C@@]6(C)C[C@@H](O)[C@@H](O)[C@@](C)(CO)C6[C@H](O)C[C@@]5(C)[C@]3(C)CC4)OC[C@H](O)[C@@H]2O)[C@H](O)[C@H](O)[C@H]1O[C@@H]1OC[C@@H](O)[C@H](O[C@H]2O[C@H](C)[C@@H](O)[C@H](O)[C@@H]2O)[C@H]1O (stereo partly specified)	SKOV3	-1.53% [at 11.6 µM] (inactive)
COc1cccc(OC)c1-c1ccc(C[C@H](NC(=O)c2c(Cl)cccc2Cl)C(=O)O)cc1	SKOV3	inactive
C=C(COC(=O)C(C)C)C1Oc2cc(C(C)=O)ccc2C1OC(=O)C(C)C (stereo unspecified)	SKOV3	inactive
CC1=CCC[C@@H]2[C@@](C)(CCc3ccoc3)[C@H](C(=O)O)CC[C@@]12C	SKOV3	inactive

// moving on: another record for activity change, negative = cytotoxicity
Req: I am curious: what activity change, negative = cytotoxicity value has been reported for COC(=O)C1(C)CCCC2(C)c3ccc(C(C)C)cc3C(O)C(O)C12 (stereo unspecified) ?
Resp: inactive

====

Target: Calcium and integrin-binding protein 1 (Homo sapiens)
Test: Primary qHTS for Identification of Calcium Integrin Binding Protein 1 (CIB1) Competitor (AID 1508620);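 also: GST tagged CIB1 binding a fluorescein labelled alphaIIb integrin peptide tracer; top concentration of the series differs between compounds; % is scaled to controls: 0 for no effect and ±100 for the full control effect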
Settings: CIB1-GST / FITC-alphaIIb peptide fluorescence polarization; series mostly up to 57.7 µM
Inconclusive results are not listed. Calls of active or inactive are those of the source. Calls follow the shape of the dose curve; as a rule, active = well fitted inhibition curve with a large enough effect; inconclusive = small, poorly fitted or top-dose-only effect; inactive = flat fitted curve, though single readings scatter.

MOLECULE	activity change, negative = inhibition
Cc1nc2cc(-c3cc(F)cc(C#N)c3)ccc2s1	inactive
COc1c2c(c(C)c3c1C(=O)OC3)OC1(C)CC(O)C34OC(O)(CCC3(C)C1C2)OC4(C)C (centres undefined)	inactive
COc1cc(O)c2c(c1)C1(OC2=O)C(C)=CC(=O)C1O (centres undefined)	inactive
C/C=C(\C)C(=O)OC1CC2C(CC=C3CC(OC4CC(OC)C(OC5CC(OC)C(OC6CC(OC)C(OC7CC(OC)C(OC8CC(OC)C(OC9OC(CO)C(O)C(O)C9O)C(C)O8)C(C)O7)C(C)O6)C(C)O5)C(C)O4)CCC32C)C2(O)CCC(C(C)=O)C12C (centres undefined)	0.354% [at 12.4 µM] (inactive)

====

For each record, write down the corresponding max response.
Tested on: CRL-7250
Assay: Cytotoxic Profiling of Annotated Libraries Using Quantitative High-Throughput Screening (AID 1296008); also: % is scaled to controls: 0 for no effect and ±100 for the full control effect; nearly all actives have a fitted effect of over 60% in size
Conditions: Five cell lines viability, CellTiter-Glo ATP luminescence, 48-72 h; active compounds read low
Records with an inconclusive call do not appear.
Please give a number only; it is taken to be in %.

Req: // fetch CRL-7250 max response for `CC[C@@H]1C(=O)O[C@]23C=C[C@@H]4C(C(=O)OC)=CO[C@H](O[C@@H]12)[C@@H]43`
Resp: -23.4

Req: Another compound: C/C=C1/[C@H](O[C@@H]2O[C@H](CO)[C@@H](O)[C@H](O)[C@H]2O)OC=C2C(=O)O[C@@H]3C[C@@H](C(C)CO)[C@H](COC(=O)C[C@H]21)[C@H]3C (some centres undefined)
Resp: 3.26

Req: Another compound: `COC(=O)[C@H](Cc1cccc(C(=N)N)c1)[C@@H](C)NC(=O)c1ccc(-c2cc[n+]([O-])cc2)cc1`
Resp: -2.22

Req: Another compound: COc1cc2c(c(OC)c1O)C(c1ccc(O)cc1)C1C(=O)OC3C(COC(=O)C1=C2)OC(CO)(OC1OC(COC(=O)/C=C/c2ccc(OC4OC(C)C(O)C(O)C4O)cc2)C(O)C(O)C1O)C3O (centres undefined)
Resp: 2.78

Req: Another compound: NC1=NC2(c3cc(NC(=O)c4ccc(F)cn4)ccc3F)COCC2CS1 (centres undefined)
Resp: 3.35

Req: Another compound: CC(C)CC(c1c(O)c(C=O)c(O)c(C=O)c1O)C1CCC(C)(O)C2CC(C(C)(C)O)CCC12C (centres undefined)
Resp: -4.35

Req: Another compound: CC12CC(O)C(O)C=C1c1cc(O)cc(O)c1C(=O)O2 (centres undefined)
Resp: -7.12

Req: Another compound: `COc1ccc2c(c1)C=C1Cn3c-2c(C2CCCCC2)c2ccc(cc23)C(=O)NS(=O)(=O)N(C)CCOCCN(C)C1=O`
Resp: -49.9

Req: Another compound: O=C(O)CC1CCC(c2ccc(-c3ccc(Nc4ccc(C(F)(F)F)nc4)cn3)cc2)CC1 (centres undefined)
Resp: 3.84

Req: Another compound: `CCC(=O)N1CCc2cc(OC)c(O)cc2C1`
Resp: -24.5

Req: Another compound: `O=C(O)c1cccc(CN2C(=O)/C(=C(\c3ccccc3)c3ccc(Cl)cc3)c3ccccc32)c1`
Resp: 3.11

Req: Another compound: `CC(C)CC(=O)O[C@@H]1O[C@H](CO)[C@@H](O[C@H]2O[C@H](C)[C@@H](N[C@H]3C=C(CO)[C@@H](O[C@H]4O[C@H](CO)[C@@H](O[C@H]5O[C@H](CO)[C@@H](O[C@H]6O[C@H](CO)[C@@H](O)[C@H](O)[C@H]6O)[C@H](O)[C@H]5O)[C@H](O)[C@H]4O)[C@H](O)[C@H]3O)[C@H](O)[C@H]2O)[C@H](O)[C@H]1O`
Resp: 1.09

Req: Another compound: CC(C)Oc1ccc(-c2nc(-c3cccc4c3CCC4NCCC(=O)O)no2)cc1C#N (centres undefined)
Resp: 0.795

Req: Another compound: CC1CC(=O)[C@]2(O)C(C(=O)OCCc3ccc(O)cc3)=CO[C@@H](O[C@@H]3O[C@H](CO)[C@@H](O)[C@H](O)[C@H]3O)[C@H]12 (some centres undefined)
Resp: -11.7

====

Tested on: C33A
Test: Primary qHTS to identify gynecologic anti-cancer compounds using libraries of approved drugs and bioactive compounds (AID 1345084); also: % is scaled to controls: 0 for no effect and ±100 for the full control effect; nearly all actives have a fitted effect of over 55% in size
Details: Gynecologic cancer cell panel viability, ATPlite luminescence, 48 h; series mostly up to 57.5 µM
Records with an inconclusive call do not appear. Active and inactive are the calls of the source. Calls follow the shape of the dose curve; as a rule, active = well fitted cell-killing curve with a large enough effect; inconclusive = small, poorly fitted or top-dose-only effect, or effect the other way; inactive = flat fitted curve, though single readings scatter.
READOUT_KIND: activity change, negative = cytotoxicity

COMPOUND	READOUT_KIND	EXPERIMENTAL_VALUE
COCC1OC(OC(C)(C)C2CCC3(C)C=C(C4CCC5C4(C)CC(O)C4OC(C(C)(C)O)CCC45C)CCC3O2)C(NC(C)=O)C(O)C1O (configuration not stated)	activity change, negative = cytotoxicity	inactive
C[C@@H]1O[C@@H](O[C@H]2[C@H](O)[C@@H](O[C@@H]3O[C@H](CO)[C@H](O)[C@H](O)[C@H]3O)[C@H](O[C@H]3CC[C@@]4(C)C(CC[C@]5(C)C4CC=C4[C@@H]6CC(C)(C)CC[C@]6(C(=O)O[C@@H]6O[C@H](CO)[C@@H](O)[C@H](O)[C@H]6O)CC[C@]45C)C3(C)C)O[C@@H]2C(=O)O)[C@H](O)[C@H](O)[C@H]1O (some centres not stated)	activity change, negative = cytotoxicity	1.15% [at 11.6 µM] (inactive)
CC1=C2C(=O)C=C(CO)C2[C@H]2OC(=O)[C@H](C)[C@@H]2[C@@H](OC(=O)Cc2ccc(O)cc2)C1 (some centres not stated)	activity change, negative = cytotoxicity	inactive
CC1CCC2C(C(=O)O)=CC3(O)CC(C)(C)CC123 (configuration not stated)	activity change, negative = cytotoxicity	inactive
CC(=O)O[C@@H]1[C@@H](O)[C@H](C)O[C@@H](O[C@H]2[C@@H]3C=CO[C@@H](O[C@@H]4O[C@H](CO)[C@@H](O)[C@H](O)[C@H]4OC(C)=O)[C@@H]3[C@@]3(CO)O[C@@H]23)[C@@H]1OC(=O)/C=C/c1ccc(O)cc1	activity change, negative = cytotoxicity	inactive

Req: I am curious: what activity change, negative = cytotoxicity value has been reported for `COc1cc(Nc2ccc([N+](=O)[O-])cc2C(=O)O)cc2ccccc12` ?
Resp: inactive

Req: Another compound: C/C(=C\CCC(C)CCO)C(=O)OC[C@H]1O[C@@H](O[C@@H]2OC=C(C(=O)O)[C@H]3CC[C@](C)(O)[C@@H]23)C(O)[C@@H](O)C1O (some centres not stated)
Resp: inactive
